- System: MCF-7 (breast cancer cell line)
- assay_overview: MTT cell growth inhibition, MCF-7
- Assay type: cell-based
- applied_conditions: Homo sapiens, MCF7; MCF-7, 96 h incubation, MTT; 50% growth inhibition; calculated only if E max > 50%; read-out: IC50
parameter: IC50 (nM)
Express your answer in nM, writing the number without its unit.

**Q:** Fill blank: measured IC50 of the compound "COc1cccc2c1C(=O)c1c(O)c3c(c(O)c1C2=O)C[C@@](O)(C(=O)CO)C[C@@H]3O[C@H]1C[C@H](N)[C@H](O)[C@H](C)O1" is ____.
**A:** 820

###

- Tested on: NCI/ADR-RES (doxorubicin-resistant ovarian cancer cell line)
- assay_overview: MTT cell growth inhibition, NCI/ADR-RES
- Type: cell-based
- applied_conditions: NCI/ADR-RES, 48 h incubation, MTT; inhibition at highest concentration tested (100 μM)
Binary call on E max (% inhibition): Criterion met from 80 % inhibition upward, Criterion not met beneath that.

* CCCCCCCCCCn1cc(C[C@@H]2NC(=O)[C@@H](Cc3c[nH]c4ccccc34)NC(=O)[C@H](CO)NC(=O)[C@@H](CS)NC(=O)[C@H](CO)NC(=O)[C@@H](CCCNC(=N)N)NC(=O)[C@H](CCC(N)=O)NC(=O)[C@@H](CCCCN)NC2=O)nn1 | Criterion not met
* CCCCCCCCCCCCCCn1cc(C[C@@H]2NC(=O)[C@@H](Cc3c[nH]c4ccccc34)NC(=O)[C@H](CO)NC(=O)[C@@H](CSC3CC(=O)N(CCCCCC(=O)NN=C(CO)[C@]4(O)Cc5c(O)c6c(c(O)c5[C@@H](O[C@H]5C[C@H](N)[C@H](O)[C@H](C)O5)C4)C(=O)c4c(OC)cccc4C6=O)C3=O)NC(=O)[C@H](CO)NC(=O)[C@@H](CCCNC(=N)N)NC(=O)[C@H](CCC(N)=O)NC(=O)[C@@H](CCCCN)NC2=O)nn1 (some centres unmarked) | Criterion not met
* N.N.[Cl][Pt][Cl] [Cisplatin, cisplatin, reference compound] | Criterion met

Pending compound:
**Q:** Is E max (% inhibition) for COc1cccc2c1C(=O)c1c(O)c3c(c(O)c1C2=O)C[C@@](O)(C(CO)=NNC(=O)CCCCCN1C(=O)CC(SC[C@H]2NC(=O)[C@H](CCC(N)=O)NC(=O)[C@@H](CCCCN)NC(=O)[C@H](Cc4cn(CCCCC(=O)NCCNc5ccc([N+](=O)[O-])c6nonc56)nn4)NC(=O)[C@@H](Cc4c[nH]c5ccccc45)NC(=O)[C@H](CO)NC(=O)[C@@H](CCCCN)NC(=O)[C@H](CO)NC2=O)C1=O)C[C@@H]3O[C@H]1C[C@H](N)[C@H](O)[C@H](C)O1 (some centres unmarked) at or above 80 % inhibition?
**A:** Criterion not met

###

- Tested on: NCI/ADR-RES (doxorubicin-resistant ovarian cancer cell line)
- assay_overview: MTT cell growth inhibition, NCI/ADR-RES
- Assay type: cell-based
- applied_conditions: NCI/ADR-RES, 72 h incubation, MTT; inhibition at highest concentration tested (100 μM)
Square brackets hold non-standard residues; d marks the D form. Peptide text beside a SMILES is read from it. * marks the point of attachment. X1 = COc1cccc2c1C(=O)c1c(O)c3c(c(O)c1C2=O)C[C@@](O)(C(CO)=NNC(=O)CCCCCN1C(=O)CC(*)C1=O)C[C@@H]3O[C@H]1C[C@H](N)[C@H](O)[C@H](C)O1; Pra = C#CC[C@H](N)C(=O)O
parameter: E max (% inhibition)
Express your answer in % inhibition, writing the number without its unit.

Here's what some known entries look like.
• CCCCCCCCCCCCCCn1cc(C[C@@H]2NC(=O)[C@@H](Cc3c[nH]c4ccccc34)NC(=O)[C@H](CO)NC(=O)[C@@H](CSC3CC(=O)N(CCCCCC(=O)NN=C(CO)[C@]4(O)Cc5c(O)c6c(c(O)c5[C@@H](O[C@H]5C[C@H](N)[C@H](O)[C@H](C)O5)C4)C(=O)c4c(OC)cccc4C6=O)C3=O)NC(=O)[C@H](CO)NC(=O)[C@@H](CCCNC(=N)N)NC(=O)[C@H](CCC(N)=O)NC(=O)[C@@H](CCCCN)NC2=O)nn1 (stereo partly shown) = 51
• C#CC[C@@H]1NC(=O)[C@@H](Cc2c[nH]c3ccccc23)NC(=O)[C@H](CO)NC(=O)[C@@H](CCCCN)NC(=O)[C@H](CO)NC(=O)[C@@H](CSC2CC(=O)N(CCCCCC(=O)NN=C(CO)[C@]3(O)Cc4c(O)c5c(c(O)c4[C@@H](O[C@H]4C[C@H](N)[C@H](O)[C@H](C)O4)C3)C(=O)c3c(OC)cccc3C5=O)C2=O)NC(=O)[C@H](CCC(N)=O)NC(=O)[C@@H](CCCCN)NC1=O (stereo partly shown) [CP1-DOX] (cyclo(Q[dC](X1)S[dK]S[dW][Pra][dK])) = 22
• C#CC[C@@H]1NC(=O)[C@@H](Cc2c[nH]c3ccccc23)NC(=O)[C@H](CO)NC(=O)[C@@H](CSC2CC(=O)N(CCCCCC(=O)NN=C(CO)[C@]3(O)Cc4c(O)c5c(c(O)c4[C@@H](O[C@H]4C[C@H](N)[C@H](O)[C@H](C)O4)C3)C(=O)c3c(OC)cccc3C5=O)C2=O)NC(=O)[C@H](CO)NC(=O)[C@@H](CCCNC(=N)N)NC(=O)[C@H](CCC(N)=O)NC(=O)[C@@H](CCCCN)NC1=O (stereo partly shown) [CP2-DOX] (cyclo(Q[dR]S[dC](X1)S[dW][Pra][dK])) = 13

**Q:** Item CCCCCCCCCCn1cc(C[C@@H]2NC(=O)[C@@H](Cc3c[nH]c4ccccc34)NC(=O)[C@H](CO)NC(=O)[C@@H](CSC3CC(=O)N(CCCCCC(=O)NN=C(CO)[C@]4(O)Cc5c(O)c6c(c(O)c5[C@@H](O[C@H]5C[C@H](N)[C@H](O)[C@H](C)O5)C4)C(=O)c4c(OC)cccc4C6=O)C3=O)NC(=O)[C@H](CO)NC(=O)[C@@H](CCCNC(=N)N)NC(=O)[C@H](CCC(N)=O)NC(=O)[C@@H](CCCCN)NC2=O)nn1 (stereo partly shown) with NCI/ADR-RES (doxorubicin-resistant ovarian cancer cell line) - E max (% inhibition)?
**A:** 64

###

- Tested on: NCI/ADR-RES (doxorubicin-resistant ovarian cancer cell line)
- assay_overview: MTT cell growth inhibition, NCI/ADR-RES
- Type: cell-based
- applied_conditions: NCI/ADR-RES, 72 h incubation, MTT; inhibition at highest concentration tested (100 μM)
parameter: E max (% inhibition)

**Q:** Fill blank: measured E max (% inhibition) of the compound CCCCCCCCCCn1cc(C[C@@H]2NC(=O)[C@@H](Cc3c[nH]c4ccccc34)NC(=O)[C@H](CO)NC(=O)[C@@H](CCCCN)NC(=O)[C@H](CO)NC(=O)[C@@H](CSC3CC(=O)N(CCCCCC(=O)NN=C(CO)[C@]4(O)Cc5c(O)c6c(c(O)c5[C@@H](O[C@H]5C[C@H](N)[C@H](O)[C@H](C)O5)C4)C(=O)c4c(OC)cccc4C6=O)C3=O)NC(=O)[C@H](CCC(N)=O)NC(=O)[C@@H](CCCCN)NC2=O)nn1 (stereo partly shown) [CP1T10-DOX] is ____.
**A:** 84 ± 3 % inhibition

###

- System: MCF-7 (breast cancer cell line)
- assay_overview: MTT cell growth inhibition, MCF-7
- Assay type: cell-based
- applied_conditions: MCF-7, 96 h incubation, MTT; inhibition at highest concentration tested (100 μM); triplicate points
Binary call on E max (% inhibition): label 1 from 80 % inhibition upward, label 0 beneath that.

// known answers, use as guide
* CCCCCCCCCCn1cc(C[C@@H]2NC(=O)[C@@H](Cc3c[nH]c4ccccc34)NC(=O)[C@H](CO)NC(=O)[C@@H](CCCCN)NC(=O)[C@H](CO)NC(=O)[C@@H](CS)NC(=O)[C@H](CCC(N)=O)NC(=O)[C@@H](CCCCN)NC2=O)nn1 | label 0
* CCCCCCCCCCn1cc(C[C@@H]2NC(=O)[C@@H](Cc3c[nH]c4ccccc34)NC(=O)[C@H](CO)NC(=O)[C@@H](CCCCN)NC(=O)[C@H](CO)NC(=O)[C@@H](CSC3CC(=O)N(CCCCCC(=O)NN=C(CO)[C@]4(O)Cc5c(O)c6c(c(O)c5[C@@H](O[C@H]5C[C@H](N)[C@H](O)[C@H](C)O5)C4)C(=O)c4c(OC)cccc4C6=O)C3=O)NC(=O)[C@H](CCC(N)=O)NC(=O)[C@@H](CCCCN)NC2=O)nn1 (some centres unmarked) | label 1

Pending compound:
**Q:** Is E max (% inhibition) for CCCCCCCCCCn1cc(C[C@@H]2NC(=O)[C@@H](Cc3c[nH]c4ccccc34)NC(=O)[C@H](CO)NC(=O)[C@@H](CSC3CC(=O)N(CCCCCC(=O)NN=C(CO)[C@]4(O)Cc5c(O)c6c(c(O)c5[C@@H](O[C@H]5C[C@H](N)[C@H](O)[C@H](C)O5)C4)C(=O)c4c(OC)cccc4C6=O)C3=O)NC(=O)[C@H](CO)NC(=O)[C@@H](CCCNC(=N)N)NC(=O)[C@H](CCC(N)=O)NC(=O)[C@@H](CCCCN)NC2=O)nn1 (some centres unmarked) at or above 80 % inhibition?
**A:** label 1
